system: HepG2; test: GSK_TCMDC: Percent inhibition of human HepG2 cell line. Test compounds present at 10uM.; type: functional
Note that class boundaries on Inhibition are low value: < 10%; medium value: ≥ 10% and < 40%; high value: ≥ 40%

compound=O=C(Nc1ccc2c(c1)CCC2)c1nc(N2CCN(c3ccncc3)CC2)ccc1Cl.O=C(O)C(F)(F)F cat="high value"
compound=Cc1cc(NC(=O)[C@H](CC2CCCCC2)Nc2ccc(C#N)c3ccccc23)ccc1F.O=C(O)C(F)(F)F cat="medium value"
compound=O=C(NC1CC1)c1ccc(N2CCC(Cc3ccccc3)CC2)c([N+](=O)[O-])c1 cat="medium value"
compound="O=C(Nc1ccc(F)cc1)NC1CCN(c2ccnc3cc(Cl)ccc23)C1.O=C(O)C(F)(F)F (stereo not given)" cat="medium value"
compound=CC(C)COc1ccc(Cl)cc1Cc1nc(-c2nc3ccc(N4CCN(C)CC4)nc3[nH]2)cs1.Cl cat="medium value"
compound=CC(C)C[C@H](NC(=O)c1ccc(OCCN2CCOCC2)cc1)C(=O)N[C@H](/C=N/NC(=O)OC(C)(C)C)CCc1ccccc1 cat="low value"
compound=Cl.Oc1ccc(CCNc2nc(NCCCOc3ccccc3-c3ccc(C(F)(F)F)cc3)nc(N3CCNCC3)n2)cc1 cat="high value"
compound=Cl.NCc1ccc(Nc2nccc(Nc3ccc(-c4ccccc4)cc3)n2)cc1 cat="high value"
compound=O=C(Cn1c(CCc2cccc(F)c2F)nc(=O)c2ccccc21)N(Cc1ccc(-c2ccc(C(F)(F)F)cc2)cc1)C1CCN(C2CCSCC2)CC1.O=C(O)C(O)C(O)C(=O)O cat="high value"
compound=O=C(O)C(F)(F)F.Oc1ccc(CN2CCC(NCc3cccc4ccccc34)CC2)cc1 cat="low value"
compound=CNc1ccc(CNCc2ccc(-c3ccc(-c4nc5cccc(C)c5[nH]4)s3)cc2)cc1.O=C(O)C(F)(F)F cat="medium value"
compound=O=C(Nc1cccc(CN2CCCN(Cc3ncc[nH]3)CC2)c1)c1ccc(Cl)c(Cl)c1.O=C(O)C(F)(F)F cat="low value"
compound=COc1cccc(-c2cnc(-c3ccncc3)nc2C2CCN(Cc3ccc(NC(C)=O)cc3)CC2)c1 cat="medium value"
compound=O=C(NCCN1CCCCC1)N1CCCN(c2ncnc3cc(-c4ccccc4)sc23)CC1.O=C(O)C(F)(F)F cat="low value"
compound=O=C(/C=C/c1ccc(Cl)c(Cl)c1)NCCCCCN1CC[C@H](NC(=O)c2sc3ccccc3c2Cl)C1 cat="medium value"
compound=CC(=O)Nc1ncc(C(=O)Nc2ccc(-c3cccc(-c4nc5cc(C(F)(F)F)ccc5[nH]4)c3)cc2)s1 cat="high value"
compound=Cc1cc(NCCCOc2ccc(Cl)cc2)nc(NCc2ccccc2)n1.Cl cat="high value"
compound=Cc1nc(-c2nc(NCc3ccc4c(c3)OCO4)ncc2-c2ccsc2)sc1C cat="low value"
compound=OCCc1ccc(Nc2nccc(-c3nnc4ccccn34)n2)cc1 cat="high value"
compound=Cc1cc(N/N=C/c2cccc([N+](=O)[O-])c2)c2ccccc2n1 cat="low value"
compound=CC(C)c1ccc(NC(=O)c2cccc(CN3CCCN(Cc4cccc(O)c4)CC3)c2)cc1.O=C(O)C(F)(F)F cat="medium value"
compound=CCCNc1ccc2nccc(CCN3CCC(NCc4ccc5c(n4)NC(=O)CS5)CC3)c2n1 cat="medium value"
compound="CCN1C(c2ccc(Cl)cc2)C(CNCc2ccccc2O)CC1(C)CO (stereo not given)" cat="high value"
compound="CCN(CCO)CCCC(C)Nc1ccnc2cc(Cl)ccc12.O=S(=O)(O)O (stereo not given) [HYDROXYCHLOROQUINE SULFATE]" cat="low value"
compound="CC(Cc1ccc(CNC(=O)c2ccc(CC(C)NCCc3cccc(Cl)c3)cc2)cc1)NCCc1cccc(Cl)c1 (stereo not given)" cat="high value"
compound="CCN(CC)CCOc1ccc(C(O)(C#CC(O)(c2ccc(Br)cc2)c2ccc(OCCN(CC)CC)cc2)c2ccc(Br)cc2)cc1 (stereo not given)" cat="high value"
compound=COc1cc(F)c2nccc([C@@H](O)CN3CCC(NCc4cc5c(cc4F)OCCO5)CC3)c2c1 cat="medium value"
compound=Cc1nc2c(=O)sc3ccccc3c2n1Cc1ccccc1 cat="low value"
